target: WT pol β (Homo sapiens, UniProt P06746); construct: made in house; assay: Single turnover polymerase activity (rapid-quench), WT pol β; assay type: biochemical; conditions: apparent dNTP dissociation constant; Control in APC sequence, templating base C
measurement-name: Kd (µM)

// solved cases for Kd follow
[
  {
    "compound": "Nc1nc2c(ncn2C2CC(O)C(COP(=O)(O)OP(=O)(O)C(F)P(=O)(O)O)O2)c(=O)[nH]1 (mixture of isomers) [CHF]",
    "Kd, µM": 2.2
  },
  {
    "compound": "Nc1nc2c(ncn2C2CC(O)C(COP(=O)(O)OP(=O)(O)C(Cl)P(=O)(O)O)O2)c(=O)[nH]1 (mixture of isomers) [CHCl]",
    "Kd, µM": 5.6
  },
  {
    "compound": "Nc1nc2c(ncn2[C@H]2C[C@H](O)[C@@H](COP(=O)(O)OP(=O)(O)OP(=O)(O)O)O2)c(=O)[nH]1 [dGTP]",
    "Kd, µM": 1.7
  }
]

(A) Nc1ccn([C@H]2C[C@H](O)[C@@H](COP(=O)(O)OP(=O)(O)OP(=O)(O)O)O2)c(=O)n1 [dCTP]
(B) Nc1nc2c(ncn2[C@H]2C[C@H](O)[C@@H](COP(=O)(O)OP(=O)(O)CP(=O)(O)O)O2)c(=O)[nH]1 [CH2]
IN: Between A and B , which one shows the smaller Kd number? Mark your answer with the label of the selected entry.
OUT: B
(B: 2.2 µM, A: 456 µM)

Every entry's value here was drawn from paper PMC7145665.
